test system: group 2: CDC14A, PTP4A1, BRCA2 and RCL1 homologous peptide/HLA-A*02:01 complexes (mixed)
experiment summary: SPR (BIAcore T200), crude scFv captured, mixed complexes flowed over
// classify(record): look up SPR binding level in ranges group 1 (below 10 RU), group 2 (10 RU to below 60 RU), group 3 (60 RU or more)

# example entries with known answers
[
  {
    "binder": "75-AS170036 VL1VH1-57K98Q108S (scFv) scFv: QSALTQPRSVSGSPGQSVTISCAGTSSDVGSENYVSWYQQHPGKAPKLMIYQVNKRASGVPDRFSGSKSGNTASLTISGLQAEDEADYYCASYRSSDQNIVFGGGTKLTVLGGGGSGGGGSGGGGSEVQLVESGGGLVQPGGSLRLSCAASGFTFSSYAMSWVRQAPGKGLEWVSTINSGTGKPYYADSVKGRFTISRDNSKNTLYLQMNSLRAEDTAVYYCAKNFFDGSWFLSPPAMDYWGQGTLVTVSSHHHHHH",
    "label class": "group 2"
  },
  {
    "binder": "43-AS170036 VL1VH1-56Y98I108A (scFv) scFv: QSALTQPRSVSGSPGQSVTISCAGTSSDVGSENYVSWYQQHPGKAPKLMIYQVNKRASGVPDRFSGSKSGNTASLTISGLQAEDEADYYCASYRSSDINIVFGGGTKLTVLGGGGSGGGGSGGGGSEVQLVESGGGLVQPGGSLRLSCAASGFTFSSYAMSWVRQAPGKGLEWVSTINSGTYSPYYADSVKGRFTISRDNSKNTLYLQMNSLRAEDTAVYYCAKNFFDGSWFLAPPAMDYWGQGTLVTVSSHHHHHH",
    "label class": "group 3"
  },
  {
    "binder": "48-AS170036 VL1VH1-56Y98Q108S (scFv) scFv: QSALTQPRSVSGSPGQSVTISCAGTSSDVGSENYVSWYQQHPGKAPKLMIYQVNKRASGVPDRFSGSKSGNTASLTISGLQAEDEADYYCASYRSSDQNIVFGGGTKLTVLGGGGSGGGGSGGGGSEVQLVESGGGLVQPGGSLRLSCAASGFTFSSYAMSWVRQAPGKGLEWVSTINSGTYSPYYADSVKGRFTISRDNSKNTLYLQMNSLRAEDTAVYYCAKNFFDGSWFLSPPAMDYWGQGTLVTVSSHHHHHH",
    "label class": "group 2"
  }
]

### Prompt Lab log: 40-AS170036 VL1VH1-56Y98F108A (scFv) scFv: QSALTQPRSVSGSPGQSVTISCAGTSSDVGSENYVSWYQQHPGKAPKLMIYQVNKRASGVPDRFSGSKSGNTASLTISGLQAEDEADYYCASYRSSDFNIVFGGGTKLTVLGGGGSGGGGSGGGGSEVQLVESGGGLVQPGGSLRLSCAASGFTFSSYAMSWVRQAPGKGLEWVSTINSGTYSPYYADSVKGRFTISRDNSKNTLYLQMNSLRAEDTAVYYCAKNFFDGSWFLAPPAMDYWGQGTLVTVSSHHHHHH — assign SPR binding level category
### Response group 3

### Prompt Lab log: 34-AS170036 VL1VH1-98I108A (scFv) scFv: QSALTQPRSVSGSPGQSVTISCAGTSSDVGSENYVSWYQQHPGKAPKLMIYQVNKRASGVPDRFSGSKSGNTASLTISGLQAEDEADYYCASYRSSDINIVFGGGTKLTVLGGGGSGGGGSGGGGSEVQLVESGGGLVQPGGSLRLSCAASGFTFSSYAMSWVRQAPGKGLEWVSTINSGTGSPYYADSVKGRFTISRDNSKNTLYLQMNSLRAEDTAVYYCAKNFFDGSWFLAPPAMDYWGQGTLVTVSSHHHHHH — assign SPR binding level category
### Response group 2
